Target: T1, Biotin Y46,48,51(SO3) PSGL-1(42-62) peptide (human, sulfotyrosine at Y46, Y48 and Y51; C-terminal Lys-biotin)
T1 construct: also called fully sulfated N-terminal PSGL-1 peptide
T1 peptide: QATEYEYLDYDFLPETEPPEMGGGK
Experiment: ELISA, immobilized biotin peptide
Entries annotated with measured EC50
OBSERVABLE: EC50 (nM)

{"columns": ["BINDER", "NUMERIC VALUE"],
 "data": [
  ["09B09 (antibody, IgG4, V domains shown) VH: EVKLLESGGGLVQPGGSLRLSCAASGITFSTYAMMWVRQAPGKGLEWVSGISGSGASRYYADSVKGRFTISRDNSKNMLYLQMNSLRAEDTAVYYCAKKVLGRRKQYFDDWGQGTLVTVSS VL: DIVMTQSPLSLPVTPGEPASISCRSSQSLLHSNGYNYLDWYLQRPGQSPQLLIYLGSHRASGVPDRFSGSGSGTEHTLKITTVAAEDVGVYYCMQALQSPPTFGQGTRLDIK", 0.07],
  ["09A08 (antibody, IgG4, V domains shown) VH: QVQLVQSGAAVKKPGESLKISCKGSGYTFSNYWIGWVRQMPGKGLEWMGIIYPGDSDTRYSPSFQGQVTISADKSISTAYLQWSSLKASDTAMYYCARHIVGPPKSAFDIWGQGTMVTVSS VL: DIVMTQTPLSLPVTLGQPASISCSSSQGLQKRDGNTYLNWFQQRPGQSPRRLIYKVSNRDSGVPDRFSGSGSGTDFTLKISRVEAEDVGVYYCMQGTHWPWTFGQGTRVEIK", 0.1]
]}
